Attribution: PubChem BioAssay AID1671463

# testedSystem: Atrial natriuretic peptide receptor 1 (Homo sapiens) (UniProt P16066)
# Sequence (P16066 whole entry, looked up): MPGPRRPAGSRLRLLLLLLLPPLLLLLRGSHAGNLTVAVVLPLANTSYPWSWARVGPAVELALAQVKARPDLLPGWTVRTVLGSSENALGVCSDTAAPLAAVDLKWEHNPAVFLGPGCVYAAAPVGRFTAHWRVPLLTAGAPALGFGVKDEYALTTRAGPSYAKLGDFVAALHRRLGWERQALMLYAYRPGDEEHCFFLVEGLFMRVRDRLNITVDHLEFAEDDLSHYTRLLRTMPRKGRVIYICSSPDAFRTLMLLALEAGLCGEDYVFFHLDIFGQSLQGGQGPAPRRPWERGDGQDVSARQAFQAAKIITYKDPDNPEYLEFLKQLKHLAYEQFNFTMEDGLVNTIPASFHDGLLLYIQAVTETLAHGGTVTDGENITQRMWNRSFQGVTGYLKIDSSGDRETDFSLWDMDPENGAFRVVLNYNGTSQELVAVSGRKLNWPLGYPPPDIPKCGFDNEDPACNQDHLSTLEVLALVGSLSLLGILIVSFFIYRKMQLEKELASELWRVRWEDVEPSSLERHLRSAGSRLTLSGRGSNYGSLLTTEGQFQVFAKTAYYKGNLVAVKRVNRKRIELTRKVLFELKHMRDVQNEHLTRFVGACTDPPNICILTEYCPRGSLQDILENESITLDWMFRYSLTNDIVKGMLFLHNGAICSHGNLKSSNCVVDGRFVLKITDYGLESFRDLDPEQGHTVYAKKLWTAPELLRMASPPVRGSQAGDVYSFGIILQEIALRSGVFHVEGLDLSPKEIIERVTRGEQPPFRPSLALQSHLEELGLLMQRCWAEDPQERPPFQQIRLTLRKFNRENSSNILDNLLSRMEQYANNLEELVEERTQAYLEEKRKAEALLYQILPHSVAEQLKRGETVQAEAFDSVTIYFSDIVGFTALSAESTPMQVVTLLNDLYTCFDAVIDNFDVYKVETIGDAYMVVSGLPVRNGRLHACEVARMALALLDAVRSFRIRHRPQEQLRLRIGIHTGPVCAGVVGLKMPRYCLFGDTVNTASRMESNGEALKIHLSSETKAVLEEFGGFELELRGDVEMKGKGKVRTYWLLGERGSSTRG
# assayName: GC-A stimulated cGMP production enhancers – HEK293 GC-A cells, cGMP TR-FRET, EC30 ANP, primary screen (AID 1671463)
# measurementSetup: at 10 µM, active compounds read high, 0% at EC30 ANP, 100% saturating ANP
About 520 (0.14%) of roughly 370,000 compounds were called active. The full list was thinned out, with actives kept by preference.
measuredParameter: activation (%)
Answers are plain numbers, in %.

Reference set (5 entries):
INSERT INTO measurements (compound, testedsystem, measuredparameter, recordedmeasurement) VALUES
  ('C#CCN([C@H](C(=O)OC)C(C)CC)S(=O)(=O)c1ccccc1Br (stereo not given in full)', 'Atrial natriuretic peptide receptor 1 (Homo sapiens) (UniProt P16066)', 'activation', -4.19),
  ('CC12CN(NC(=O)c3ccc(Cl)cc3)C3(C#N)CC1CCC23C (stereo not given)', 'Atrial natriuretic peptide receptor 1 (Homo sapiens) (UniProt P16066)', 'activation', 0.43),
  ('Cc1cc(C)nc(S/C=C/C(=O)c2ccccc2)n1', 'Atrial natriuretic peptide receptor 1 (Homo sapiens) (UniProt P16066)', 'activation', 43.5),
  ('O=[N+]([O-])c1ccc(CN2CC(N3CC=CC3)CS2(=O)=O)cc1 (stereo not given)', 'Atrial natriuretic peptide receptor 1 (Homo sapiens) (UniProt P16066)', 'activation', 0.5),
  ('Cc1ccc(Cn2c(=N)c(S(=O)(=O)c3ccc(C)cc3)cc3c(=O)n4ccccc4nc32)cc1', 'Atrial natriuretic peptide receptor 1 (Homo sapiens) (UniProt P16066)', 'activation', 0.3);

I have 4 compounds here; please give me activation for each one.
1. CCOc1ccc(S(=O)(=O)N2CCC(c3ccccc3)CC2)cc1C(=O)O
2. CC1(C)CC(=O)c2cnc3nc4ccccc4n3c2C1
3. COC(=O)[C@@H](NC(=O)Nc1cc(Cl)ccc1C)C(C)C
4. COc1ccc(/C=C/CN2CCN(Cc3ccc(C)cc3)C(CCO)C2)cc1 (stereo not given)

Output:
[0.54, 1.08, 4.54, 0.4]

###

I'd appreciate it if you could supply activation values for the items below.
# testedSystem: Atrial natriuretic peptide receptor 1 (Homo sapiens)
# assayName: GC-A stimulated cGMP production enhancers – HEK293 GC-A cells, cGMP TR-FRET, EC30 ANP, primary screen (AID 1671463)
# measurementSetup: at 10 µM, active compounds read high, 0% at EC30 ANP, 100% saturating ANP
The whole screen tested about 370,000 compounds, of which about 520 (0.14%) were called active. Only a selection was taken, and actives are over-represented in it overall.
One number for each entry, in %.

Return reported activation values for all items listed beneath this line.
1. Cc1nn(Cc2ccccc2)c(C)c1C(=O)N1CCN(CC(=O)Nc2ccccc2Cl)CC1
2. Cc1ccn(-c2cccc(-n3ccc(C)n3)n2)n1
3. C#CCOc1ccccc1/C=C1/C(=O)ON=C1C
4. COc1ccccc1CNC(=O)CSc1nc(=O)n(Cc2ccncc2)c2c1CCC2
5. C[C@H](NS(=O)(=O)c1ccc(Cl)cc1)C(=O)OCC(=O)N1CCOCC1
6. CSc1sc(C(=O)NNC(=O)c2ccc(Cl)cc2)c2c1C=CCC2
7. O=C(CCC1CCCN(Cc2ccc(O)c(Cl)c2)C1)NCc1ccccc1F (stereo unspecified)

Output:
1. 4.37
2. 5.87
3. 25.7
4. 2.8
5. 7.01
6. -1.84
7. 3.25

I need activation for every entry listed below, if you could help.
1. COCCCN1C(=O)C(=O)/C(=C(/O)c2ccc(S(=O)(=O)N3CCOCC3)cc2)C1c1ccc(F)cc1 (stereo unspecified)
2. Cc1cc(C)nc(NC(=O)Nc2ccccc2C(F)(F)F)n1
3. COc1ccc2occ(C(=O)c3ccc(N=C(C)N(C)C)cc3)c2c1
4. CN(C)/C(=N\OC(=O)c1ccccc1)c1nonc1N

Output:
1. 1.53
2. 9.79
3. -4.34
4. -2.63

Batch request: activation per item, same order as input.
1. O=C(OCC(=O)N1CCCC1)c1ccc(Cl)nc1
2. COC(=O)Nc1ccc(S(=O)(=O)N2CCN(CCN3C(=O)C4C5C=CC(C5)C4C3=O)CC2)cc1 (stereo unspecified)
3. Nc1c(-c2cccc(Cl)c2)cnn1-c1cccc([N+](=O)[O-])c1
4. CC(C)c1cc(C(N)=O)c(NC(=O)c2cccc(COc3ccc(Br)cc3)c2)s1
5. CC(C)C[C@H](NC(=O)[C@@H]1O[C@H]1C(=O)O)C(=O)NCCCCN=C(N)N
6. Cc1cccc(NC(=O)C2CCCN2S(=O)(=O)c2ccc(F)cc2)c1C (stereo unspecified)
7. Fc1ccc2c(c1)C(c1cccnc1)=NNC(c1cccs1)=N2
8. O=C(c1ccc(CS(=O)Cc2ccccc2Cl)o1)N1CCN(c2ccccc2)CC1 (stereo unspecified)

Output:
1. -0.33
2. -1.89
3. -2.54
4. -1.61
5. 2.77
6. 0.56
7. -28.1
8. -8.64
